Target: T1, human FN14 on the cell surface (FN14-transfected cells or cancer cell lines intrinsically expressing FN14, … (human, UniProt Q9NP84 28-129))
T1 construct: The cells in the assays are human cancer lines or FN14-transfected cells (293F/FN14); also called TWEAKR; CD266
T1 sequence: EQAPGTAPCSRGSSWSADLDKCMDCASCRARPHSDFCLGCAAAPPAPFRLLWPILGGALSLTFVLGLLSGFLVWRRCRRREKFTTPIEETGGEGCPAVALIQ
Assay: saturation binding of recombinant antibody on target-expressing cells
Answer each item with its documented Kd.
The figure you give is taken to be in nM; do not add the unit.

## Task Quick one: Kd for recombinant chimeric monoclonal antibody PS4A (chicken V regions, human IgG1 / lambda constant regions) (antibody, V domains shown) VH: AVTLDESGGGLQTPGGALSLVCKASGFTFSSYDMFWVRQEPGKGLEWVAGIDDDGSGRRYAPAVKGRATISRDNGQSTLRLQLNNLRAEDTGTYYCTKCAYSSGCDYEGGYIDAWGHGTEVIVSS VL: ALTQPSSVSANPGETVKITCSGGGSSYYAGSYYYGWYQQKAPGSAPVTLIYYNNKRPSDIPSRFSGSLSGSTNTLTITGVRADDEAVYFCGSIDNSGAAFGAGTTLTVLG ?
## Result 0.21

## Task Quick one: Kd for recombinant chimeric monoclonal antibody PS4B (chicken V regions, human IgG1 / lambda constant regions) (antibody, V domains shown) VH: AVTLDESGGGLQTPGGALSLVCKASGFTFSSYDMFWVRQEPGKGLEWVAGIDDDGSGRRYAPAVKGRATISRDNGQSTLRLQLNNLRAEDTGTYYCTKCAYSSGCDYEGGYIDAWGHGTEVIVSS VL: ALTQPASVSANPGETVKITCSGGGSSYYAGSYYYGWYQQKSPGSAPVTVIYYNNKRPSDIPSRFSGSLSGSTNTLTITGVRADDEAVYFCGSIDNSGAAFGAGTTLTVLG ?
## Result 0.35

## Task Quick one: Kd for recombinant chimeric monoclonal antibody FS17 (chicken V regions, human IgG1 / lambda constant regions) (antibody, V domains shown, also called mAb FS17) VH: AVTLDESGGGLQTPGGALSLVCKASGFTFSSYDMAWVRQEPGKGLEWVAGIDDDGSGRRYAPAVKGRATISRDNGQSTLRLQLNNLRAEDTGTYYCTKCAYTGGCDYEGGYIDAWGHGTEVIVSS VL: ALTQPASVSANPGETVKITCSGGGSSYYAGSYYYGWYQQKAPGSAPVTLIYYNNKRPSDIPSRFSGSLSGSTNTLTITGVRADDEAVYFCGSIDNSGAAFGAGTTLTVLG ?
## Result 0.36

## Task Quick one: Kd for recombinant chimeric monoclonal antibody FS10 (chicken V regions, human IgG1 / lambda constant regions) (antibody, V domains shown, expressed in 293F cells; also called mAb FS10) VH: AVTLDESGGGLQTPGGALSLVCKASGFTFSSYDMAWVRQEPGKGLEWVAGIDDDGSGRRYAPAVKGRATISRDNGQSTLRLQLNNLRAEDTGTYYCTKCAYSSGCDYEGGYIDAWGHGTEVIVSS VL: ALTQPASVSANPGETVKITCSGGGSSYYAGSYYYGWYQQKAPGSALVTLIYYNNKRPSDIPSRFSGSLSGSTNTLTITGVRADDEAVYFCGSADNSGAAFGAGTTLTVLG ?
## Result 25

The origin of these recorded values is patent US20120258121A1.
